Data origin, for the record: patent US10766890B2

system: AD38 cells; experiment: Viability of AD38 cells, Promega CellTiter-Glo; type: cell-based; conditions: 10 μM compound, 6 days, CellTiter-Glo luminescence, controls being 100%
OBSERVABLE: AD38 Viability Normalized Result (cmpd/DMSO %) at 10 μM

[[record]]
molecule = "CN(C)c1ccc(-c2ccc(CNC(=O)c3ccc4c(c3)NC(=O)c3ccccc3S4(=O)=O)cc2)cc1"
number = 92

[[record]]
molecule = "O=C(NCCc1ccc(-c2ccccc2)cc1)c1ccc2c(c1)NC(=O)c1ccccc1N2"
number = 103

[[record]]
molecule = "O=C(NCCc1ccc(-c2ccc(F)cc2)cc1)c1ccc2c(c1)NC(=O)c1ccccc1S2"
number = 62

[[record]]
molecule = "COc1ccc(Oc2cccc(CNC(=O)c3ccc4c(c3)NC(=O)c3ccccc3S4(=O)=O)c2)cc1"
number = 86


====

tested on: AD38 cells; test: Viability of AD38 cells, Promega CellTiter-Glo; type: cell-based; conditions: 10 μM compound, 6 days, CellTiter-Glo luminescence, controls being 100%
OBSERVABLE: AD38 Viability Normalized Result (cmpd/DMSO %) at 10 μM

[[record]]
compound = "CCC(CNC(=O)c1ccc2c(c1)NC(=O)c1ccccc1S2(=O)=O)c1ccccc1 (stereo not drawn) [Compound 530]"
number = 92

[[record]]
compound = "O=C(NCc1cccc(-n2nccn2)c1)c1ccc2c(c1)NC(=O)c1ccccc1S2(=O)=O [Compound 568]"
number = 101

[[record]]
compound = "COc1cccc(Cc2cccc(CNC(=O)c3ccc4c(c3)NC(=O)c3ccccc3S4(=O)=O)c2)c1 [Compound 808-A]"
number = 84

[[record]]
compound = "COc1cccc(Oc2cccc(CNC(=O)c3ccc4c(c3)NC(=O)c3ccccc3O4)c2)c1 [Compound 744-A]"
number = 103

[[record]]
compound = "Nc1ncc(-c2ccc(CNC(=O)c3ccc4c(c3)NC(=O)c3ccccc3S4(=O)=O)cc2)cn1 [Compound 777]"
number = 99

[[record]]
compound = "O=C(NCc1ccc(-c2ccc3[nH]cnc3c2)cc1)c1ccc2c(c1)NC(=O)c1ccccc1S2(=O)=O [Compound 644]"
number = 89

[[record]]
compound = "COc1ccc(Sc2cccc(CNC(=O)c3ccc4c(c3)NC(=O)c3ccccc3O4)c2)cc1 [Compound 743-A]"
number = 91

[[record]]
compound = "N#Cc1ccc(-c2ccc(CNC(=O)c3ccc4c(c3)NC(=O)c3ccccc3S4(=O)=O)cc2)cc1 [Compound 652-A]"
number = 36

[[record]]
compound = "COc1cccc(Sc2cccc(CNC(=O)c3ccc4c(c3)NC(=O)c3ccccc3O4)c2)c1 [Compound 742-A]"
number = 107

[[record]]
compound = "O=C(NCc1ccc(-c2cccc(O)c2)cc1)c1ccc2c(c1)NC(=O)c1ccccc1O2 [Compound 720]"
number = 102

[[record]]
compound = "O=C(NCc1ccc(-c2ccccc2)cc1)c1ccc2c(c1)NC(=O)c1ccccc1S2(=O)=O [Compound 563]"
number = 59

[[record]]
compound = "O=C(NCc1ccc(-c2c[nH]nn2)cc1)c1ccc2c(c1)NC(=O)c1ccccc1S2(=O)=O [Compound 569]"
number = 100

[[record]]
compound = "O=C(NCc1cccc(-c2cccc(O)c2)c1)c1ccc2c(c1)NC(=O)c1ccccc1S2(=O)=O [Compound 774]"
number = 113

[[record]]
compound = "COc1ccc(Oc2cccc(CNC(=O)c3ccc4c(c3)NC(=O)c3ccccc3O4)c2)cc1 [Compound 745-A]"
number = 92

[[record]]
compound = "COc1ccc(Cc2cccc(CNC(=O)c3ccc4c(c3)NC(=O)c3ccccc3O4)c2)cc1 [Compound 741-A]"
number = 89


====

tested on: AD38 cells; test: Viability of AD38 cells, Promega CellTiter-Glo; format: cell-based; settings: 10 μM compound, 6 days, CellTiter-Glo luminescence, controls being 100%
OBSERVABLE: AD38 Viability Normalized Result (cmpd/DMSO %) at 10 μM

[[record]]
molecule = "N#Cc1cccc(-c2ccc(CNC(=O)c3ccc4c(c3)NC(=O)c3ccccc3S4(=O)=O)cc2)c1"
measure_unit = "%"
number = 98

[[record]]
molecule = "O=C(NCc1ccc(-n2nccn2)cc1)c1ccc2c(c1)NC(=O)c1ccccc1S2(=O)=O"
measure_unit = "%"
number = 104

[[record]]
molecule = "O=C(NCc1ccc(-c2ccc(F)cc2)cc1)c1ccc2c(c1)NC(=O)c1ccccc1S2(=O)=O"
measure_unit = "%"
number = 29

[[record]]
molecule = "O=C(NCCCCOc1ccc(CCNC(=O)c2ccc3c(c2)NC(=O)c2ccccc2S3(=O)=O)cc1)OCc1ccccc1"
measure_unit = "%"
number = 91

[[record]]
molecule = "CN(C)CCOc1ccc(-c2ccc(CNC(=O)c3ccc4c(c3)NC(=O)c3ccccc3S4(=O)=O)cc2)cc1"
measure_unit = "%"
number = 104

[[record]]
molecule = "O=C(NCc1ccc(-c2ccc(O)cc2)cc1)c1ccc2c(c1)NC(=O)c1ccccc1S2(=O)=O"
measure_unit = "%"
number = 7

[[record]]
molecule = "CN(Cc1ccc(-c2ccc(O)cc2)cc1)C(=O)c1ccc2c(c1)NC(=O)c1ccccc1S2(=O)=O"
measure_unit = "%"
number = 34

[[record]]
molecule = "O=C(NCc1cccc(-c2ccc(F)cc2)c1)c1ccc2c(c1)NC(=O)c1ccccc1S2(=O)=O"
measure_unit = "%"
number = 95

[[record]]
molecule = "COc1ccc(-c2ccc(CNC(=O)c3ccc4c(c3)NC(=O)c3ccccc3S4(=O)=O)cc2)cn1"
measure_unit = "%"
number = 93

[[record]]
molecule = "O=C(NCc1cccc(Sc2cccc(O)c2)c1)c1ccc2c(c1)NC(=O)c1ccccc1O2"
measure_unit = "%"
number = 89

[[record]]
molecule = "C[C@H](NC(=O)c1ccc2c(c1)NC(=O)c1ccccc1S2(=O)=O)c1ccc(-c2ccc(O)cc2)cc1"
measure_unit = "%"
number = 1

[[record]]
molecule = "COc1cccc(Oc2cccc(CNC(=O)c3ccc4c(c3)NC(=O)c3ccccc3S4(=O)=O)c2)c1"
measure_unit = "%"
number = 90

[[record]]
molecule = "O=C(NCc1ccc(-c2ccc(O)nc2)cc1)c1ccc2c(c1)NC(=O)c1ccccc1S2(=O)=O"
measure_unit = "%"
number = 100

[[record]]
molecule = "O=C(NCc1cccc(-c2ccc(O)cc2)c1)c1ccc2c(c1)NC(=O)c1ccccc1S2(=O)=O"
measure_unit = "%"
number = 87

[[record]]
molecule = "O=C(NCc1cccc(Cc2ccc(O)cc2)c1)c1ccc2c(c1)NC(=O)c1ccccc1O2"
measure_unit = "%"
number = 111

[[record]]
molecule = "COc1ccc(Sc2cccc(CNC(=O)c3ccc4c(c3)NC(=O)c3ccccc3S4(=O)=O)c2)cc1"
measure_unit = "%"
number = 44

[[record]]
molecule = "O=C(NCc1cccc(-c2ccccc2)c1)c1ccc2c(c1)NC(=O)c1ccccc1S2(=O)=O"
measure_unit = "%"
number = 105

[[record]]
molecule = "O=C(NCc1ccc(-c2ccc(O)cc2)cc1)c1ccc2c(c1)NC(=O)c1ccccc1O2"
measure_unit = "%"
number = 110

[[record]]
molecule = "O=C(NCc1cccc(Cc2ccc(O)cc2)c1)c1ccc2c(c1)NC(=O)c1ccccc1S2(=O)=O"
measure_unit = "%"
number = 77

[[record]]
molecule = "COc1cccc(Sc2cccc(CNC(=O)c3ccc4c(c3)NC(=O)c3ccccc3S4(=O)=O)c2)c1"
measure_unit = "%"
number = 66

[[record]]
molecule = "O=C(NCc1ccc(-c2ccc3[nH]cnc3c2)cc1)c1ccc2c(c1)NC(=O)c1ccccc1O2"
measure_unit = "%"
number = 97

[[record]]
molecule = "O=C(NCCOc1ccc(F)cc1)c1ccc2c(c1)NC(=O)c1ccccc1S2(=O)=O"
measure_unit = "%"
number = 100

[[record]]
molecule = "O=C(NCc1cccc(Sc2cccc(O)c2)c1)c1ccc2c(c1)NC(=O)c1ccccc1S2(=O)=O"
measure_unit = "%"
number = 99

[[record]]
molecule = "C[C@@H](NC(=O)c1ccc2c(c1)NC(=O)c1ccccc1S2(=O)=O)c1ccc(-c2ccc(O)cc2)cc1"
measure_unit = "%"
number = 104

[[record]]
molecule = "NC(=O)c1ccc(-c2ccc(CNC(=O)c3ccc4c(c3)NC(=O)c3ccccc3S4(=O)=O)cc2)cc1"
measure_unit = "%"
number = 103

[[record]]
molecule = "N#Cc1cccc(-c2ccc(CNC(=O)c3ccc4c(c3)NC(=O)c3ccccc3O4)cc2)c1"
measure_unit = "%"
number = 120

[[record]]
molecule = "O=C(NCc1cccc(Oc2cccc(O)c2)c1)c1ccc2c(c1)NC(=O)c1ccccc1S2(=O)=O"
measure_unit = "%"
number = 93

[[record]]
molecule = "COc1ccc(Cc2cccc(CNC(=O)c3ccc4c(c3)NC(=O)c3ccccc3S4(=O)=O)c2)cc1"
measure_unit = "%"
number = 85

[[record]]
molecule = "O=C(NCc1ccc(-c2ccc3[nH]ccc3c2)cc1)c1ccc2c(c1)NC(=O)c1ccccc1O2"
measure_unit = "%"
number = 101

[[record]]
molecule = "O=C(NCc1ccc(-c2cn(Cc3ccccc3)nn2)cc1)c1ccc2c(c1)NC(=O)c1ccccc1S2(=O)=O"
measure_unit = "%"
number = 97

